PROTOCOL DESCRIPTION: Pharmacokinetics of AG10 after oral administration in beagle dogs, Study No. 2
Assay type: in vivo
CONDITION CONTEXT: both sexes, dog, plasma, 20 mg/kg, 0.5% MC formulation, 20 mg/kg oral, sex MF
RECORDED ENDPOINT: Cmax (ng/mL)

chemical_string=Cc1n[nH]c(C)c1CCCOc1cc(C(=O)O)ccc1F recorded_endpoint=Cmax reading_unit=ng/mL endpoint_value=8100

====

PROTOCOL DESCRIPTION: Pharmacokinetics of AG10 after oral administration in beagle dogs, Study No. 2
Format: in vivo
CONDITION CONTEXT: both sexes, dog, plasma, 20 mg/kg, 0.5% MC formulation, 20 mg/kg oral, sex MF, read-out: AUC0-24
RECORDED ENDPOINT: AUC(0-t)

chemical_string=Cc1n[nH]c(C)c1CCCOc1cc(C(=O)O)ccc1F endpoint_value="71200 ng·h/mL"

====

PROTOCOL DESCRIPTION: Pharmacokinetics of AG10 tablets and capsule given orally to male beagle dogs, Study No. 3
Type: in vivo
CONDITION CONTEXT: male, beagle, dog, plasma, po, 200 mg, capsule 200 mg oral, male dogs
RECORDED ENDPOINT: Cmax

chemical_string=Cc1n[nH]c(C)c1CCCOc1cc(C(=O)O)ccc1F endpoint_value="9330 ng/mL"

====

PROTOCOL DESCRIPTION: Pharmacokinetics of AG10 tablets and capsule given orally to male beagle dogs, Study No. 3
Format: in vivo
CONDITION CONTEXT: male, beagle, dog, plasma, po, 200 mg, tablet 200 mg oral, male dogs, read-out: AUC0-24
RECORDED ENDPOINT: AUC(0-t)

chemical_string=Cc1n[nH]c(C)c1CCCOc1cc(C(=O)O)ccc1F endpoint_value="88000 ng·h/mL"

====

PROTOCOL DESCRIPTION: Pharmacokinetics of AG10 after oral administration in beagle dogs, Study No. 2
Assay type: in vivo
CONDITION CONTEXT: both sexes, dog, plasma, 20 mg/kg, methylcellulose formulation, read-out: time to maximal concentration (T max)
RECORDED ENDPOINT: Tmax (h)

chemical_string=Cc1n[nH]c(C)c1CCCOc1cc(C(=O)O)ccc1F endpoint_value=2.5

====

PROTOCOL DESCRIPTION: Pharmacokinetics of AG10 tablets and capsule given orally to male beagle dogs, Study No. 3
Assay type: in vivo
CONDITION CONTEXT: male, beagle, dog, plasma, po, 200 mg, capsule 200 mg oral, male dogs, read-out: AUC0-24
RECORDED ENDPOINT: AUC(0-t) (ng·h/mL)

chemical_string=Cc1n[nH]c(C)c1CCCOc1cc(C(=O)O)ccc1F endpoint_value=65700

====

PROTOCOL DESCRIPTION: Pharmacokinetics of AG10 tablets and capsule given orally to male beagle dogs, Study No. 3
Assay type: in vivo
CONDITION CONTEXT: male, beagle, dog, plasma, po, 50 mg, tablet 50 mg oral, male dogs
RECORDED ENDPOINT: Cmax (ng/mL)

chemical_string=Cc1n[nH]c(C)c1CCCOc1cc(C(=O)O)ccc1F recorded_endpoint=Cmax endpoint_value=4660

====

PROTOCOL DESCRIPTION: Pharmacokinetics of AG10 tablets and capsule given orally to male beagle dogs, Study No. 3
Type: in vivo
CONDITION CONTEXT: male, beagle, dog, plasma, po, 50 mg, 50 mg tablets, dogs, read-out: time to maximal concentration (T max)
RECORDED ENDPOINT: Tmax (min)

chemical_string=Cc1n[nH]c(C)c1CCCOc1cc(C(=O)O)ccc1F reading_unit=min endpoint_value=30
